The measured values listed here are drawn from the supplement of paper PMC7125110.

B1: glmS ribozyme (parent)
chain: AUAAAAGCGCCAGAACUACAGAAAUGUAGUUGACGAGGAGGAGGUUUAUCGAAUUUUCGGCGGAUGCCUCCAAA

variants of: B1; assay: self-cleavage kobs at 10000 uM GlcN6P; higher = faster cleavage; RNA array; conditions: with glucosamine-6-phosphate
This sample holds only a part of the variants without activity.
Readings of self-cleavage kobs at 10000 uM GlcN6P for the listed variants
The response must be a number in s⁻¹ with no trailing unit.

A53C U55C | 0.00116
C16G U45G | 0.000718

Identify measured self-cleavage kobs at 10000 uM GlcN6P associated with A64G C70A 3.24e-05

Identify measured self-cleavage kobs at 10000 uM GlcN6P associated with A39U U57G 2.2e-05

Identify measured self-cleavage kobs at 10000 uM GlcN6P associated with A42G A53G 0.00932

Identify measured self-cleavage kobs at 10000 uM GlcN6P associated with `U56A` 0.0213

Identify measured self-cleavage kobs at 10000 uM GlcN6P associated with C16A U31G 0.000267

Identify measured self-cleavage kobs at 10000 uM GlcN6P associated with C19A A53U 0.0123
